Assay Name: small-molecule microarray binders of probe aShh, primary screen, biochemical, biotinylated probe, 635/667 nm fluorescence (AID 1114);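 note: probe is biotin-labelled aShh protein from a stem cell growth factor screen; measures binding of labelled protein to compounds printed on the slide; score merges feature fluorescence at 667 nm with signal-to-noise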
Condition Context: higher = more signal
Readout Name: composite z-score
Write no unit; give the number alone.

Query string: What value of composite z-score has been recorded for this entry: O=C1C[C@]2(c3ccc([N+](=O)[O-])cc3)C(=O)N(CC(F)(F)F)c3cc(CO)ccc3[C@H]2N1CC12CC3CC(CC(C3)C1)C2
Result string: -0.229

Query string: Quick one: composite z-score for CC(C)(C)N1CC=CC23O[C@@H]4C=CCOC(=O)[C@@H]4[C@H]2C(=O)N(CCCCCO)[C@@H]3C1=O (some centres not stated) ?
Result string: -0.221

Query string: Tell me the measured composite z-score of COC(=O)[C@@]1(Cc2ccc(F)cc2)[C@H]2c3cc(C(=O)N4CCCC4)n(Cc4cccc5ccccc45)c3C[C@H]2CN1C(=O)c1ccccc1 , please.
Result string: 0.111

Query string: What does the data say about its composite z-score? Entry: COC(=O)[C@@]1(Cc2ccccc2)[C@H]2c3cc(C(=O)N(C)C)n(Cc4cc(C)n(C)n4)c3C[C@H]2CN1C(=O)c1ccccc1
Result string: -0.465

Query string: // query composite z-score value for entry NCCCCCCNC(=O)[C@H]1C[C@H]2C(=O)NCC(=O)N2[C@H]1c1cccc(OCCO)c1
Result string: 0.199

More entries:
Query string: What composite z-score value was documented for this compound, CC(C)NC(=O)[C@@H]1c2ccccc2C(=O)N(Cc2ccccc2)[C@H]1c1ccc(CO)cc1 ?
Result string: -0.214

Query string: // composite z-score lookup, key: C=CC[C@@]1(C(=O)NCC(O)CO)N=C(c2ccc(OCCCO)cc2)O[C@@H]1c1ccccc1N=[N+]=[N-] (some centres not stated)
Result string: 0.0062

###

composite Z-score reference
Assay Name: small-molecule microarray binders of probe aXIP, primary screen, biochemical, NeuroSMM set, 635/667 nm fluorescence (AID 1119);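 note: probe is the protein aXip251-270 applied at 1 µg/mL to compound-printed slides; binding of probe to printed compounds measured as 667 nm fluorescence plus signal to noise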
Condition Context: higher = more signal, called active from +8 up or from −8 down
The source made the active and inactive calls.

Solved cases (4 shown):
Query string: Requested read-out: composite Z-score. Entry: O=C1C2C=CC(C(O)c3ccc(B(O)O)cc3)N(Nc3ccccc3)C2C(=O)N1c1ccccc1 (configuration not stated)
Result string: 0.387 (inactive)

Query string: # lookup: composite Z-score of CC(C)NC(=O)[C@@H]1c2ccccc2C(=O)N(Cc2ccccc2)[C@H]1c1ccc(CO)cc1
Result string: 0.601 (inactive)

Query string: Given the compound COc1ccc([Si](C)(C)[C@@H]2[C@@H](CCn3cc([C@H](O)c4ccccc4)nn3)O[C@]3(C(=O)N(Cc4ccc(N5C(=O)c6cccc7cccc5c67)cc4)c4ccccc43)[C@H]2C)cc1 , what is its reported composite Z-score?
Result string: -0.196 (inactive)

Query string: Sample N[C@@H](Cc1ccccc1)Cn1cc(-c2ccccc2)nn1 — what was its composite Z-score?
Result string: -0.254 (inactive)

More entries:
Query string: State the recorded composite Z-score for this entry: CCOC(=O)C[C@H]1[C@H](OC(=O)c2ccccc2-c2ccccc2)[C@@H](NC(=O)Cc2ccc(OC)cc2)c2cc(OCCCO)ccc2N1C(=O)c1ccccc1
Result string: 0.0843 (inactive)

Query string: For the compound Cc1ccc(S[C@]2(C(=O)O)CC(=O)N(C3Cc4ccccc4C3)[C@@H]2c2ccc(CO)cc2I)cc1 , what composite Z-score is on record?
Result string: -0.0549 (inactive)

Query string: Which composite Z-score value belongs to COCCOC(=O)N1C(=O)[C@@]2(c3cc(C#CCNC(N)=O)ccc31)[C@H](c1ccccc1OCCO)N1[C@H](c3ccccc3)[C@H](c3ccccc3)OC(=O)[C@H]1[C@@H]2C(N)=O ?
Result string: -0.479 (inactive)

###

Tested on: Human papillomavirus type 1a protein E7 (residues 44-93)
Assay Name: HPV1a E7 fragment binders on microarrays, primary screen, biochemical, small-molecule microarray, residues 44-93, 635 nm fluorescence (AID 1108);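 note: E7 fragment applied at 1 µg/mL in TBST for 1 h at 4 C; score combines spot fluorescence with its signal to noise ratio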
Condition Context: small-molecule microarray binding, fluorescence 635 nm; higher = more signal
Would you please tag the item y when its composite z-score is 0.7 or above, and n when it is below?

Query string: Check the entry Cc1ccc(S[C@]2(C(=O)NC3CC3)CC(=O)N(Cc3ccccc3)[C@@H]2c2ccc(CO)cc2)cc1 : does composite z-score equal or exceed 0.7?
Result string: n

---
Query string: Assess whether reported composite z-score for Cc1ccc(F)cc1S(=O)(=O)N[C@@H]1CCN(Cc2ccc(-c3ccccc3)cc2)C1 sits at 0.7 or higher.
Result string: n

Query string: Quick check: does CC(C)(C)OC(=O)CC[C@@]1(C(=O)O)N=C(c2ccc(OCCCO)cc2)O[C@@H]1c1ccccc1N=[N+]=[N-] have composite z-score greater than or equal to 0.7?
Result string: y

Query string: Hi, just wondering whether O=C1O[C@@H](c2ccccc2)[C@@H](c2ccccc2)N2[C@@H](c3ccccc3OCCO)[C@]3(C(=O)Nc4ccc(C#CC5(O)CCCCCC5)cc43)[C@@H](C(=O)Nc3nc4ccccc4s3)[C@H]12 shows composite z-score of 0.7 or higher.
Result string: y

Query string: Dear colleague, could you confirm whether CC(C)C[C@@H]1NC(=O)[C@@H]2C[C@H](C(=O)NCCCCCC[N+](C)(C)C)[C@H](c3ccc(O)cc3)N2C1=O has composite z-score at or above 0.7?
Result string: y

Query string: composite z-score >= 0.7 for COC(=O)[C@@]1(Cc2ccccc2)[C@H]2c3cc(C(=O)N(C)C)n(Cc4cc(C)n(C)n4)c3C[C@H]2CN1C(=O)c1ccccc1 ?
Result string: y

###

Measured composite z-score, listed per entry.
Assay Name: small-molecule binders of probe aLefty1, primary screen, biochemical, small-molecule microarray, 635/667 nm fluorescence (AID 1153);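 note: score merges spot fluorescence with signal-to-noise ratio from the scanned slide images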
Condition Context: higher = more signal
Keep it simple and answer with nothing but the number.

Use the examples below as a reference point.
Query string: Item under review: O=C1N(CCS(=O)(=O)c2ccccc2)Cc2ccccc2[C@H]2OC(c3ccc(OCCCO)cc3)=N[C@@]12CCS(=O)(=O)c1ccccc1 . Reported composite z-score?
Result string: 0.197

Query string: Please look up its composite z-score: C=CCNC(=O)[C@@H]1[C@H]2C(=O)O[C@H](c3ccccc3)[C@H](c3ccccc3)N2[C@H](c2ccc(O)cc2)[C@@]12C(=O)N(C(=O)OCCOC)c1ccccc12
Result string: 0.149

# evaluate next
Query string: Need composite z-score, item C[C@]1(C(=O)NCc2ccccc2)c2ccccc2C(=O)N(Cc2cc(F)cc(C(F)(F)F)c2)[C@H]1c1ccc(CO)cc1
Result string: -0.101

###

Assay Name: PSAC antagonists in infected red cells, primary screen, cell-based, P. falciparum Indochina, OD700, 18 h (AID 1157)
Condition Context: P. falciparum Indochina infected erythrocytes, osmotic lysis OD700, 18 h; higher = more signal, called active from +8 up or from −8 down
Readings of z-score for the listed compounds
Form field (numeric): enter value without unit.

// known answers, use as guide
Query string: # z-score lookup, item CCOC(=O)C[C@H]1[C@H](OC(=O)c2ccccc2-c2ccccc2)[C@@H](NC(=O)c2ccc3ccccc3c2)c2cc(OCCCO)ccc2N1C(=O)c1ccc2ccccc2n1
Result string: 0.452

Query string: Data request, read-out z-score, for CCCCCCCCCCC(O)C1C=CC2C(=O)N(Cc3ccccc3)C(=O)C2N1n1cnnc1 (stereo not given)
Result string: -2.48

Query string: // lookup z-score for COC(=O)c1ccc(OC)c(/C=C\CC(OC(C)=O)c2ccccc2)c1 (stereo not given)
Result string: 0.303

Query string: z-score lookup needed for COCC(=C=CC[C@@H](O)c1ccc(CO)o1)CCO , thanks.
Result string: -1.11

The record that follows has no z-score shown yet.
Query string: Value lookup for z-score; key = O=C1c2ccccc2[C@@]2(Cc3ccccc3N(Cc3ccccc3)C2=O)[C@H](c2ccc(CO)cc2)N1C1CCCCC1
Result string: 0.327

###

Assay Name: small-molecule binders of probe aLefty1, primary screen, biochemical, small-molecule microarray, 635/667 nm fluorescence (AID 1153);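 note: score merges spot fluorescence with signal-to-noise ratio from the scanned slide images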
Condition Context: higher = more signal
# binarize composite z-score: threshold 0.3 inclusive, high side True, low side False

Recorded results for 8 compounds are shown here.
Query string: Does the reported composite z-score for COC(=O)[C@@]1(Cc2ccc(OC)cc2)[C@H]2c3cc(C(=O)N4CCCC4)n(Cc4ccccn4)c3C[C@H]2CN1C(=O)c1ccccc1 fall at or above the 0.3 mark?
Result string: True

Query string: State whether the measured composite z-score reaches 0.3, counting equality as reaching it, for CCCC[C@H]1OB(O)C[C@H]2C1=C(C)C[C@H]1C(=O)N(Cc3ccccc3)C(=O)[C@H]12
Result string: False

Query string: Please tell me: is the compound COc1cc2c(cc1OC)CN(C(=O)[C@@H]1[C@H]3C(=O)O[C@H](c4ccccc4)[C@H](c4ccccc4)N3[C@H](c3ccccc3OCCO)[C@@]13C(=O)Nc1ccc(C#CCNC(N)=O)cc13)CC2 at or over 0.3 in terms of composite z-score?
Result string: True

Query string: Assess whether reported composite z-score for COc1cc(C(O)C2C=CC3C(=O)N(c4ccccc4)C(=O)C3N2Nc2ccc(C#N)cc2)cc(OC)c1OC (centres undefined) sits at 0.3 or higher.
Result string: False

Query string: In plain terms: is recorded composite z-score at least 0.3 for COc1ccccc1CN1C(=O)c2ccccc2[C@@H](C(=O)NCCN2CCOCC2)[C@@H]1c1ccc(CO)cc1 ?
Result string: False

Query string: Reported composite z-score at or above 0.3? CCCCCN1CC=CC23O[C@@H]4/C=C\CCC(C)OC(=O)C4[C@H]2C(=O)N(CCCCCO)[C@@H]3C1=O (some centres undefined)
Result string: False

Query string: Could you please find out whether CCOC(=O)[C@H]1C/C=C/C[C@H](C(=O)OCC)C(=O)O[C@H]2[C@@H](OC)O[C@H](CO)[C@@H](OC(=O)Nc3ccc4c(c3)OCO4)[C@@H]2OC1=O has composite z-score that meets 0.3 or exceeds it?
Result string: False

Query string: State whether the measured composite z-score reaches 0.3, counting equality as reaching it, for CCN(CC)c1ccc(N2CC=CC34O[C@@H]5C=CCCOC(=O)C5[C@H]3C(=O)N(CCCCCO)[C@@H]4C2=O)cc1 (some centres undefined)
Result string: False

---
Query string: Would you say C=CCNC(=O)[C@@H]1[C@H]2C(=O)O[C@H](c3ccccc3)[C@H](c3ccccc3)N2[C@H](c2ccccc2OCCO)[C@@]12C(=O)Nc1ccc(C#CC3=CCCCC3)cc12 shows composite z-score at minimum 0.3?
Result string: True

Query string: Textbook exercise: given the entry CC(C)N1C(=O)C[C@@](C(=O)NCc2ccccc2)(c2ccc([N+](=O)[O-])cc2)[C@H]1c1ccc(CO)cc1 , state whether its composite z-score is greater than or equal to 0.3.
Result string: False

Query string: Identify whether the reported composite z-score of the following compound is 0.3 or greater: COC(=O)[C@@]1(Cc2ccccc2)[C@H]2c3cc(C(=O)N(C)C)n(Cc4c(-c5ccccc5)noc4C)c3C[C@H]2CN1C(=O)c1ccccc1
Result string: True

Query string: Hi, just wondering whether O=c1oc(-c2ccccc2)nc2cc(Br)ccc12 shows composite z-score of 0.3 or higher.
Result string: False

Query string: Hi, just wondering whether CCOC(=O)C[C@H]1[C@H](OC(=O)c2ccc(-c3ccccc3)cc2)[C@@H](NC(=O)Cc2ccc(OC)cc2)c2cc(OCCCO)ccc2N1C(=O)c1ccc2ccccc2n1 shows composite z-score of 0.3 or higher.
Result string: False

Origin of the recorded values: PubChem BioAssay
